Experiment: Cytotoxicity against human […] cells assessed as reduction in cell viability by MTT assay
Assay type: cell-based
READOUT_LABEL: IC50

Here are 8 compounds together with their reported answers.
COMPOUND_STRUCTURE | READOUT_LABEL | RECORDED_RESULT
CN(C)CCCNC(=O)c1ccc2nc(-c3ccc4nc(CNC(=O)CCCCCC(=O)NCc5nc6ccc(-c7nc8ccc(C(=O)NCCCN(C)C)cc8[nH]7)cc6[nH]5)[nH]c4c3)[nH]c2c1 | IC50 | > 240 µM
CN1CCN(c2ccc3nc(-c4ccc5nc(CNC(=O)CCCCCCCCCCCCC(=O)NCc6nc7ccc(-c8nc9ccc(N%10CCN(C)CC%10)cc9[nH]8)cc7[nH]6)[nH]c5c4)[nH]c3c2)CC1 | IC50 | 20 to 90 µM
CN1CCN(c2ccc3nc(-c4ccc5nc(CNC(=O)CCCCCC(=O)NCc6nc7ccc(-c8nc9ccc(N%10CCN(C)CC%10)cc9[nH]8)cc7[nH]6)[nH]c5c4)[nH]c3c2)CC1 | IC50 | 20 to 90 µM
CN1CCN(c2ccc3nc(-c4ccc5nc(CNC(=O)CCCCCCCCCC(=O)NCc6nc7ccc(-c8nc9ccc(N%10CCN(C)CC%10)cc9[nH]8)cc7[nH]6)[nH]c5c4)[nH]c3c2)CC1 | IC50 | 20 to 90 µM
CN1CCN(c2ccc3nc(-c4ccc5nc(CNC(=O)CCCCCCCC(=O)NCc6nc7ccc(-c8nc9ccc(N%10CCN(C)CC%10)cc9[nH]8)cc7[nH]6)[nH]c5c4)[nH]c3c2)CC1 | IC50 | 20 to 90 µM
CN1CCN(c2ccc3nc(-c4ccc5nc(CNC(=O)CCC(=O)NCc6nc7ccc(-c8nc9ccc(N%10CCN(C)CC%10)cc9[nH]8)cc7[nH]6)[nH]c5c4)[nH]c3c2)CC1 | IC50 | 20 to 90 µM
CN1CCN(c2ccc3nc(-c4ccc5nc(CNC(=O)CCCCCCCCCCCC(=O)NCc6nc7ccc(-c8nc9ccc(N%10CCN(C)CC%10)cc9[nH]8)cc7[nH]6)[nH]c5c4)[nH]c3c2)CC1 | IC50 | 20 to 90 µM
CN1CCN(c2ccc3nc(-c4ccc5nc(CNC(=O)CCCCCCCCC(=O)NCc6nc7ccc(-c8nc9ccc(N%10CCN(C)CC%10)cc9[nH]8)cc7[nH]6)[nH]c5c4)[nH]c3c2)CC1 | IC50 | 20 to 90 µM

**Query** For the compound shown here, `CN(C)CCCNC(=O)c1ccc2nc(-c3ccc4nc(CNC(=O)CCCCCCCCCCCC(=O)NCc5nc6ccc(-c7nc8ccc(C(=O)NCCCN(C)C)cc8[nH]7)cc6[nH]5)[nH]c4c3)[nH]c2c1` , give the reported IC50.
**Result** > 240 µM

**Query** How about this compound: `CN(C)CCCNC(=O)c1ccc2nc(-c3ccc4nc(CNC(=O)CCCCCCCC(=O)NCc5nc6ccc(-c7nc8ccc(C(=O)NCCCN(C)C)cc8[nH]7)cc6[nH]5)[nH]c4c3)[nH]c2c1`
**Result** > 240 µM

**Query** Likewise for `CN1CCN(c2ccc3nc(-c4ccc5nc(CNC(=O)CCCCCCCCCCC(=O)NCc6nc7ccc(-c8nc9ccc(N%10CCN(C)CC%10)cc9[nH]8)cc7[nH]6)[nH]c5c4)[nH]c3c2)CC1` ?
**Result** 20 to 90 µM
